Each recorded value in this set is attributed to ChEMBL document CHEMBL1914436.

TEST_METHOD_NOTES: Permeability from apical to basolateral side of human Caco2 cells
Assay type: ADME, cell-based
MEASUREMENT_CONTEXT: Caco-2, read-out: permeability
ENDPOINT_NAME: Papp A→B (×10⁻⁶ cm/s)
Give just the numeric value; ×10⁻⁶ cm/s need not be written.

Query block: Need Papp A→B, item CCC(C)[C@@]1(NC(C)=O)CCN([C@@H](CCc2ccccc2)C(=O)N[C@@H](Cc2cc(F)cc(F)c2)[C@H](O)CNCc2cccc(OC)c2)C1=O (some centres not stated)
Result block: 7.5

---

Test system: Brain
TEST_METHOD_NOTES: Drug level in rat brain at 10 mg/kg, sc
Assay type: ADME, organism-based
Set-up: dose 10 mg/kg, route subcutaneous
MEASUREMENT_CONTEXT: in vivo, read-out: Drug uptake
ENDPOINT_NAME: concentration (nM)
Give just the numeric value; nM need not be written.

Query block: Could you share what concentration was measured for CCCS(=O)(=O)[C@H]1CN[C@@H]([C@@H](O)[C@H](Cc2cc(F)cc(F)c2)NC(=O)[C@H](CCc2ccccc2)N2CC[C@](NC(C)=O)(C(C)CC)C2=O)C1 (stereo partly specified) , tested on Brain?
Result block: 78
